# measurement.target: von Willebrand factor full length (Homo sapiens, UniProt P04275 SEQ:764-2813)
# assay.overview: flow; range 1.3-370 nM
# condition.parameters: tags: Calbiochem 681300
measured.property: IC50
# do not omit the unit; it follows the number

Entry under test: GGAGCCACACGACATTGGCGCGAGAGCGCATGGCTCC (mixed, ribo purines, deoxy pyrimidines) [rRdY minimer SEQ 201] . Its IC50 was 150 nM

Source: patent US20060264369
